Attribution: patent US20240409663A1

We begin with a simple list: items and their reported koff.
Biological target: T1, human GPC3-his tag protein (human, UniProt P51654 25-559, limits assumed)
T1 construct: recombinant soluble antigen used as analyte in all Biacore runs; also called recombinant GPC3 protein; rhGPC3-His; not shown: His tag
Assay: SPR Biacore, mAb captured on CM5, GPC3-his dilution series (full kinetics)
Please format your answer as a value with the unit trailing.

Consider the reported koff for these binders:
>  <Binder>
52H5D3B8-6#-VH1+VL4 (antibody, V domains shown, humanized) VH: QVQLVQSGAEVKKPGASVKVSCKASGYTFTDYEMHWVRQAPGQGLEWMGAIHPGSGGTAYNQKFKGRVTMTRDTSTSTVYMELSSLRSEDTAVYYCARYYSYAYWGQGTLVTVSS VL: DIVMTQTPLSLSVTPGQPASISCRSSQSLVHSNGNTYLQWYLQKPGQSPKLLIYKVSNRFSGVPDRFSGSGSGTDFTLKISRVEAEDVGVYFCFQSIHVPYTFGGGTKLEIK

>  <Recorded Endpoint>
koff

>  <Readout Value>
0.000984 s⁻¹

$$$$
>  <Binder>
52H5D3B8-6#-VH3+VL1 (antibody, V domains shown, humanized) VH: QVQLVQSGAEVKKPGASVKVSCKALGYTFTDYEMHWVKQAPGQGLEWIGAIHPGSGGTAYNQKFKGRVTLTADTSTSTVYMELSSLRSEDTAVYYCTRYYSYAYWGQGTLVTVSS VL: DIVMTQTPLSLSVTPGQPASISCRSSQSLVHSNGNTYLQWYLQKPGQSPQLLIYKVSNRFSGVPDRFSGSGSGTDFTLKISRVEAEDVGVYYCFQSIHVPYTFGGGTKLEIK

>  <Recorded Endpoint>
koff

>  <Readout Value>
0.000579 s⁻¹

$$$$

Could you now look at the following binder, please?
# get_value(readout='koff', item= 52H5D3B8-6#-VH1+VL3 (antibody, V domains shown, humanized) VH: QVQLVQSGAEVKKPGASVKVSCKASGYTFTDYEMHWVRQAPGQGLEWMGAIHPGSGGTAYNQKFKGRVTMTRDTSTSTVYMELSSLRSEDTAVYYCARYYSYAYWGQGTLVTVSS VL: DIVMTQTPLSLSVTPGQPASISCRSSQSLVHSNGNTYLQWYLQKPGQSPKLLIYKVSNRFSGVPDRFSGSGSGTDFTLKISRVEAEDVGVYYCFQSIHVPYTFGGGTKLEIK )
0.000872 s⁻¹
